biological target: BRAF^V600E protein (Homo sapiens, UniProt P15056, V600E); assay: HiBiT cellular BRAF V600E degradation assay; assay type: cell-based; conditions: A375.10 cells (HiBiT tag knocked in at N-terminal of BRAF V600E), 24 h incubation; concentration at which 50% of total cellular BRAF V600E is degraded
Sequence (P15056 whole entry V600E): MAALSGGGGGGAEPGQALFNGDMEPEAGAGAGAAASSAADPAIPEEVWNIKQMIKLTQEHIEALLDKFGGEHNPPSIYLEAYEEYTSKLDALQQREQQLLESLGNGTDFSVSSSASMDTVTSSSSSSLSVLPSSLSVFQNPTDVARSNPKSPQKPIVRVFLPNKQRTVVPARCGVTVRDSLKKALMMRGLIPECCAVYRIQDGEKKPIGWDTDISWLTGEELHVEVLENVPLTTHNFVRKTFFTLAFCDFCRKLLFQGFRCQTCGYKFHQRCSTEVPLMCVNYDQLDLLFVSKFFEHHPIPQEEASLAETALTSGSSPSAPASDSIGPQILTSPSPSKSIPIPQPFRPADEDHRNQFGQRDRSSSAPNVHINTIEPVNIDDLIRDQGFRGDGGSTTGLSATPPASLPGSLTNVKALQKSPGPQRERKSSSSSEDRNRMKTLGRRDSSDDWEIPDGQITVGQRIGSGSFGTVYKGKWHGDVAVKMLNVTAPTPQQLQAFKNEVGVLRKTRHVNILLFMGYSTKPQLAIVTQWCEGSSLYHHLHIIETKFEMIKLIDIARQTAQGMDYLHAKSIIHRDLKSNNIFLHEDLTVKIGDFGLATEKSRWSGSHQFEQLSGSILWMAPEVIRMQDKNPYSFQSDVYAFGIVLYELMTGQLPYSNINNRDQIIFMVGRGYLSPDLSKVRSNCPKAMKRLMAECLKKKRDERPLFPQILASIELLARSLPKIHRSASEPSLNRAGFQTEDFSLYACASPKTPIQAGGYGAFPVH
PROPERTY_NAME: DC50 (nM)
Field format: number, assumed nM, no unit text.

Take a look at these entries with their results.
>  <COMPOUND>
CCN(C)S(=O)(=O)Nc1ccc(F)c(C(=O)c2c[nH]c3ncc(-c4ccc(N5CCN(CCCC(=O)N6CCC(c7ccc(OC8CCC(=O)NC8=O)cc7)CC6)CC5)nc4)cc23)c1F (centres unmarked)

>  <UNIT>
nM

>  <DC50>
104

$$$$
>  <COMPOUND>
CCN(C)S(=O)(=O)Nc1ccc(F)c(C(=O)c2c[nH]c3ncc(-c4cnc(N5CCN(C(=O)CN6CCC(c7ccc(NC8CCC(=O)NC8=O)cc7)CC6)CC5)nc4)cc23)c1Cl (centres unmarked)

>  <UNIT>
nM

>  <DC50>
2.3

$$$$
>  <COMPOUND>
CCN(C)S(=O)(=O)Nc1ccc(F)c(C(=O)c2c[nH]c3ncc(-c4cnc(N5CCC(NC(=O)CN6CCC(c7ccc(NC8CCC(=O)NC8=O)cc7)CC6)CC5)nc4)cc23)c1F (centres unmarked)

>  <UNIT>
nM

>  <DC50>
8

$$$$
>  <COMPOUND>
CCN(C)S(=O)(=O)Nc1ccc(F)c(C(=O)c2c[nH]c3ncc(-c4cnc(N5CCN(C(=O)CCCN6CCC(c7ccc(NC8CCC(=O)NC8=O)cc7)CC6)CC5)nc4)cc23)c1F (centres unmarked)

>  <UNIT>
nM

>  <DC50>
42

$$$$

# input Name the recorded DC50 of the item CCN(C)S(=O)(=O)Nc1ccc(F)c(C(=O)c2c[nH]c3ncc(-c4ccc(N5CCN(C(=O)CC6(O)CCN(c7ccc(N[C@@H]8CCC(=O)NC8=O)cc7F)CC6)CC5)cc4)cc23)c1F in your answer.
# output 2.71

###

target: BRAF^V600E protein (Homo sapiens, UniProt P15056, V600E); test: HiBiT cellular BRAF V600E degradation assay; format: cell-based; conditions: A375.10 cells, 24 h incubation; Emax = amount of residual protein remaining in the cell after compound treatment; read-out: HiBit 24 h Emax
Note to self: Emax under 8% means Criterion met, ties and anything higher get Criterion not met.

Look over these answered cases.
>  <MOLECULE>
CCN(C)S(=O)(=O)Nc1ccc(F)c(C(=O)c2c[nH]c3ncc(-c4ccc(N5CCN(C(=O)CN6CCC(n7cc(NC8CCC(=O)NC8=O)cn7)CC6)CC5)cc4)cc23)c1F (stereo not shown)

>  <CLASS_NAME>
Criterion not met

$$$$
>  <MOLECULE>
CCN(C)S(=O)(=O)Nc1ccc(F)c(C(=O)c2c[nH]c3ncc(-c4cnc(N5CC[C@@H](C(=O)N6CCC(c7ccc(NC8CCC(=O)NC8=O)cc7)CC6)C5)nc4)cc23)c1F (stereo partly shown)

>  <CLASS_NAME>
Criterion not met

$$$$

# input Report whether reported Emax is lower than 8% (strictly) for CCN(C)S(=O)(=O)Nc1ccc(F)c(C(=O)c2c[nH]c3ncc(-c4ccc(CN5CCN(CC(=O)N6CCC(c7ccc(NC8CCC(=O)NC8=O)cc7)CC6)CC5)cc4)cc23)c1F (stereo not shown)
# output Criterion not met

# input # strict comparison: is reported Emax < 8%? input = CCN(C)S(=O)(=O)Nc1cccc(C(=O)c2c[nH]c3ncc(-c4cnc(N5CCN(C(=O)CN6CCC(c7ccc(NC8CCC(=O)NC8=O)cc7)C(F)(F)C6)CC5)nc4)cc23)c1F (stereo not shown)
# output Criterion met

# input Identify whether the molecule CCN(C)S(=O)(=O)Nc1cccc(C(=O)c2c[nH]c3ncc(-c4ccc(N5CCN(C(=O)CC6(O)CCN(c7ccc(NC8CCC(=O)NC8=O)cn7)CC6)CC5)cc4)cc23)c1F (stereo not shown) records Emax below 8%.
# output Criterion not met

# input Does this molecule meet the criterion Emax < 8%? CCN(C)S(=O)(=O)Nc1ccc(F)c(C(=O)c2c[nH]c3ncc(-c4ccc(N5CCN(C(=O)CC6(O)CCN(c7ccc(NC8CCC(=O)NC8=O)cc7F)CC6)CC5)cc4F)cc23)c1F (stereo not shown)
# output Criterion met

# input Does CCN(C)S(=O)(=O)Nc1ccc(F)c(C(=O)c2c[nH]c3ncc(-c4cnc(N5CCN(C(=O)CC6(O)CCN(c7ccc8c(N9CCC(=O)NC9=O)nn(C)c8c7)CC6)CC5)nc4)cc23)c1F have Emax strictly under 8%?
# output Criterion not met

# input Item CCN(C)S(=O)(=O)Nc1ccc(F)c(C(=O)c2c[nH]c3ncc(-c4ccc(N5CCC(NC(=O)CN6CCC(c7ccc(OC8CCC(=O)NC8=O)cc7)CC6)CC5)nc4)cc23)c1F (stereo not shown) : Emax beneath 8%, strictly?
# output Criterion not met
